I'd appreciate it if you could supply fold over rodent (Forte affinity) values for the items below.
measured.on: T1, recombinant hMCAM-His (human, UniProt P43121 24-559)
T1 construct: not shown: His tag
T1 chain: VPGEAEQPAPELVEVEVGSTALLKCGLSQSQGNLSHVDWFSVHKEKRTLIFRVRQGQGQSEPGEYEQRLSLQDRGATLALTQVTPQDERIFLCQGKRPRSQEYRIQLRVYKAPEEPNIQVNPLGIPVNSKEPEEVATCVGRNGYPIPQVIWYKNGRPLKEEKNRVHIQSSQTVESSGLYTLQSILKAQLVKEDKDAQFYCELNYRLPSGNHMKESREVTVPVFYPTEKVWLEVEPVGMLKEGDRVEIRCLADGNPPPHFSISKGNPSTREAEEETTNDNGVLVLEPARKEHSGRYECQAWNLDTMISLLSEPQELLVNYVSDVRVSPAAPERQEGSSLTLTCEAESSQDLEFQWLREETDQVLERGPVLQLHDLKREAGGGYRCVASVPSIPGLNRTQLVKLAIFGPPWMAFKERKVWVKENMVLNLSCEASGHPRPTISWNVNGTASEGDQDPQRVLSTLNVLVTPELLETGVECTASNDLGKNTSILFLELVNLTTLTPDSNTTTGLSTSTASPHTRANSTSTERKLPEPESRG
assay.remarks: ForteBio Octet Red, hMCAM-His analyte; Forte column 1; vs rodent 2120
State the result as a value with its unit after it.

binder="h2120_VH1 + h2120_VL1 (antibody, human IgG1, V domains shown) VH: QVTLKESGPVLVKPTETLTLTCTVSGFSLTSNGVSWVRQPPGKALEWIAAISSGGTTYYNSAFKSRLTISRDTSKSQVVLTMTNMDPVDTATYYCARRYGYGWYFDFWGQGTLVTVSS VL: DIQMTQSPSSLSASVGDRVTITCKASQNIYNSLAWYQQKPGKAPKVLIFNANSLQTGIPSRFSGSGSGTDFTLTISSLQPEDFATYYCQQFYSGYTFGQGTKLEIK" observable="fold over rodent (Forte affinity)" measurement="8.8 fold"
binder="h2120_VH1 + h2120_VL3 (antibody, human IgG1, V domains shown) VH: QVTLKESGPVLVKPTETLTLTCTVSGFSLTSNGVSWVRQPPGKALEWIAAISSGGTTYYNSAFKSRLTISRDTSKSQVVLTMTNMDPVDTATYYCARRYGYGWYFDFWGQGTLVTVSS VL: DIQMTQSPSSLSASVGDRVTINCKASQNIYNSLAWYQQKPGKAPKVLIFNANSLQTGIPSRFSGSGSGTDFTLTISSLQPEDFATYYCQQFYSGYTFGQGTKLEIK" observable="fold over rodent (Forte affinity)" measurement="5.9 fold"
binder="h2120_VH4 + h2120_VL3 (antibody, human IgG1, V domains shown) VH: QVTLKESGPVLVKPTETLTLTCTVSGFSLTSQGVSWVRQPPGKALEWIAAISSGGTTYYNSAFKSRLTISRDTSKSQVVLTMTNMDPVDTATYYCARRYGYGWYFDFWGQGTLVTVSS VL: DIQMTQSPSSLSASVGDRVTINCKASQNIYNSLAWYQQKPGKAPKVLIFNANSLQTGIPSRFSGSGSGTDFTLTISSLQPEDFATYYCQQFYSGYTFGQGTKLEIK" observable="fold over rodent (Forte affinity)" measurement="17.4 fold"
binder="h2120_VH5 + h2120_VL3 (antibody, human IgG1, V domains shown, also called h2120VH5VL3; VH5VL3) VH: QVTLKESGPVLVKPTETLTLTCTVSGFSLTSNAVSWVRQPPGKALEWIAAISSGGTTYYNSAFKSRLTISRDTSKSQVVLTMTNMDPVDTATYYCARRYGYGWYFDFWGQGTLVTVSS VL: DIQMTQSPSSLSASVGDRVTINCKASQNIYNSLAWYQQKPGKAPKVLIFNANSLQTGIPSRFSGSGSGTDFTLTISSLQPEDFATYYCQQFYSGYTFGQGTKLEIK" observable="fold over rodent (Forte affinity)" measurement="1.1 fold"

Entry h2120_VH1 + h2120_VL2 (antibody, human IgG1, V domains shown) VH: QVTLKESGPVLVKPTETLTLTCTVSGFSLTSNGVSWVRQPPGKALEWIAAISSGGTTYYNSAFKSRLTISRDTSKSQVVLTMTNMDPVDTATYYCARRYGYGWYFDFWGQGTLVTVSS VL: DIQMTQSPSSLSASVGDRVTITCKASQNIYNSLAWYQQKPGKAPKVLIFNANSLQTGVPSRFSGSGSGTDFTLTISSLQPEDFATYYCQQFYSGYTFGQGTKLEIK — recorded fold over rodent (Forte affinity) = 10.8 fold
